A collection of compounds and their measured activity at 10 µM
tested on: neurons from hippocampi of E18 rat embryos; assay: Neurite growth length (% NTL) in cultured E18 rat hippocampal neurons, 9-point dose response, 48 hours; assay type: cell-based; conditions: Rattus norvegicus, Neuron, 48 h, 10 μM
Only the number, expressed in %, is required.

Enquiry: Provide value of activity at 10 µM for this record tested with neurons from hippocampi of E18 rat embryos: O=C(N[C@@H]1CNC[C@H]1NC(=O)c1ccncc1)c1ccncc1 (stereo in doubt) [Example A10]
Return: 86

Enquiry: Same thing, different compound: COc1cccc(C(=O)c2ccc(C(=O)N[C@@H]3CNC[C@H]3NC(=O)c3ccncc3)cc2)c1O [Example A73]
Return: 136

Others:
Enquiry: Query activity at 10 µM on neurons from hippocampi of E18 rat embryos for COc1ccc(O)c(C(=O)c2ccc(C(=O)N[C@@H]3CNC[C@H]3NC(=O)c3ccnc(N)n3)cc2)c1 [Example A76]
Return: 558
